Experiment: Partition coefficient in octanol/water phase at pH 7.4
Type: physicochemical
measured metric: logD
Field format: numeric only.

Record CC(C)C[C@H](O)[C@H](O)[C@H](CC1CCCCC1)NC(=O)[C@H](Cc1cscn1)NC(=O)[C@@H](CC(=O)N(C)CCCN(C)C)Cc1ccccc1 . Reported logD: 2.83

* * *

Experiment: Partition coefficient in the octanol/water phase at pH 7.4
Type: physicochemical
measured metric: logD

logD for CC(C)C[C@H](O)[C@H](O)[C@H](CC1CCCCC1)NC(=O)[C@H](Cc1cscn1)NC(=O)[C@@H](CC(=O)N(C)CCN1CCN(C)CC1)Cc1ccccc1 is 3.58

The recorded logD for entry CC(C)C[C@H](O)[C@H](O)[C@H](CC1CCCCC1)NC(=O)[C@H](Cc1cscn1)NC(=O)[C@@H](CC(=O)N(C)CCc1ccncc1)Cc1ccccc1 equals > 4.2

Please fill in: logD reported for CC(C)C[C@H](O)[C@H](O)[C@H](CC1CCCCC1)NC(=O)[C@H](Cc1cscn1)NC(=O)[C@H](Cc1ccccc1)CS(=O)(=O)C(C)(C)C = > 4.2

logD recorded for this compound, CC(C)C[C@H](O)[C@H](O)[C@H](CC1CCCCC1)NC(=O)[C@H](Cc1cscn1)NC(=O)[C@H](Cc1ccccc1)CS(=O)(=O)N1CCN(C)CC1 , is 4.57

// logD lookup, compound = COCCOCOCCN(C)C(=O)C[C@@H](Cc1ccccc1)C(=O)N[C@@H](Cc1cscn1)C(=O)N[C@@H](CC1CCCCC1)[C@@H](O)[C@@H](O)CC(C)C , result: > 4.6

Record summary for CC(C)C[C@H](O)[C@H](O)[C@H](CC1CCCCC1)NC(=O)[C@H](Cc1cscn1)NC(=O)[C@H](Cc1ccccc1)CS(=O)(=O)N(C)CCc1ccccn1 : reported logD = > 4.5
